Molecular target: T1, human GPC3-his tag protein (human, UniProt P51654 25-559, limits assumed)
T1 construct: recombinant soluble antigen used as analyte in all Biacore runs; also called recombinant GPC3 protein; rhGPC3-His; not shown: His tag
Test: SPR Biacore 8K, mAb captured, affinity ranking
Quick reference: Kd of the listed items.
Only the number, expressed in nM, is required.

For the binder shown here, 52H5D3B8-6#-VH4+VL3 (antibody, V domains shown, humanized) VH: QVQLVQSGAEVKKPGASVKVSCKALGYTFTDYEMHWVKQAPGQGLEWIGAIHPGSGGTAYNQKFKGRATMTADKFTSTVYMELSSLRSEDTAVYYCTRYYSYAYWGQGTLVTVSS VL: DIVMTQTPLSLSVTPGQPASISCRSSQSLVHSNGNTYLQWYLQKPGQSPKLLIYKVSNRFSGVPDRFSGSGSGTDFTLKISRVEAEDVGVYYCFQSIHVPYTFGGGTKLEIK , give the reported Kd. 0.847

Now consider a different binder.
Value lookup for Kd; key = 52H5D3B8-6#-VH2+VL2 (antibody, V domains shown, humanized) VH: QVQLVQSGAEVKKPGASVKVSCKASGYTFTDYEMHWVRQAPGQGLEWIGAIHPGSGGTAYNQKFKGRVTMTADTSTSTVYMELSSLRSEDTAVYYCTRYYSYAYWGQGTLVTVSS VL: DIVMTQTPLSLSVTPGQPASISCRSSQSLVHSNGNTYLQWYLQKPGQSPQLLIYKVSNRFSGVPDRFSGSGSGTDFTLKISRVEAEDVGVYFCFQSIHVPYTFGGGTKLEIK 1.15
